Hello, the source for this data is PubChem BioAssay (NCI), in case you need it.

system: SK-OV-3 ovarian; assay: NCI-60 one-dose screen, 48 h; conditions: 10 µM unless noted
This is part of a sample that, as a whole, favours compounds with a hit. Of some 83,000 tested, about 20% had one in any assay. The source made the active and inactive calls. How the source made its calls: active means growth percent below 10; inactive means the rest.
Pick one and only one: 1 for active, 0 for inactive

Use the examples below as a reference point.
COc1ccc(/C=C/C(=O)c2ccc(Oc3ncnc4ccccc34)cc2)cc1OC    0
COc1cc2c(cc1OCCCCC(=O)Nc1ccc(-c3nc4ccccc4s3)cc1)N=C[C@@H]1CCCN1C2=O    0
CC(C)CNCC(O)COc1ccc(C(C)(C)c2ccc(OCC(O)CNCC(C)C)cc2)cc1 (stereo not given)    0

Input: Just curious, what result did Cc1ccc(=O)n(-c2ccc(Br)cc2F)c1 get here?
Output: 0

Input: Just curious, what result did Nc1nc(-c2cc3c(cc2Cl)NC(=O)/C3=C/c2ccc(Cl)cc2)cs1 get here?
Output: 0

Input: Just curious, what result did CN[C@@H](CCCNC(N)=NC/C=C(/C)CCC=C(C)C)C(=O)N(C)[C@@H](CCCNC(N)=NCC=C(C)C)C(=O)N[C@H](C)[C@H](OS(=O)(=O)O)c1ccc(OS(=O)(=O)O)c(COS(=O)(=O)O)c1 get here?
Output: 0

Input: Just curious, what result did C=C1C(=O)O[C@H]2[C@H]1CC/C(COC(=O)c1ccccc1)=C\CC[C@@]1(C)O[C@@H]21 get here?
Output: 0

Input: Just curious, what result did CCN(CC)CCN1C(=O)c2c(c3c4ccccc4[nH]c3c3[nH]c4ccccc4c23)C1=O get here?
Output: 0

###

tested on: NCI-H460 lung; assay: NCI-60 one-dose screen, 48 h (100 = growth as untreated, 0 = no growth, -100 = all killed); conditions: 10 µM unless noted
About 83,000 compounds went through this panel and 20% of them were active in at least one assay; those are over-represented in the sample as a whole.
Measured Quantity: growth (%)
Please reply with the bare figure in % and do not write the unit itself.

Take a look at these entries with their results.
CC(=O)N1N=C2N(Cc3ccccc3)C(=O)c3c(sc4c3CCCC4)N2C1c1cn(-c2ccccc2)nc1-c1ccc(Cl)cc1 (centres undefined)    111
C=CC(C)(O)CCC1C(=C)CCC2C(C)(C)CCCC12C (centres undefined)    112
CCNc1ncnc2n[nH]nc12    103
COc1ccccc1N1CCN(CCCOc2ccc(OCCCN3CCN(c4ccccc4OC)CC3)c(C(=O)c3cc(OC)c(OC)c(OC)c3)c2)CC1    115

Input: For the compound O=C(O)c1cccc2oc(-c3ccccc3O)nc12 , what growth is on record?
Output: 25.2

Input: For the compound c1ccc(OCC[P+](c2ccccc2)(c2ccccc2)c2ccccc2)cc1 , what growth is on record?
Output: 17.1

Input: For the compound CN1CCN(Cn2nc(-c3cc(Cl)cc(Cl)c3Cl)n(/N=C/c3ccc(Cl)cc3)c2=S)CC1 , what growth is on record?
Output: 106

Input: For the compound O=C(NCCNc1nccc(-c2c(-c3cccc(O)c3)nc3sccn23)n1)c1cccc(C(F)(F)F)c1 , what growth is on record?
Output: 85.7

Input: For the compound CC(C)CNCC(O)COc1ccc(C(C)(C)c2ccc(OCC(O)CNCC(C)C)cc2)cc1 (centres undefined) , what growth is on record?
Output: -22.2

Input: For the compound OC[C@@H](O)C(O[C@@H]1O[C@H](CO)[C@H](O)[C@H](O)[C@H]1O)[C@H](O)[C@@H](O)CO (some centres undefined) , what growth is on record?
Output: 108

Input: For the compound S=c1n(CNc2ccc(Cl)nn2)nc(-c2cc(Cl)cc(Cl)c2Cl)n1/N=C/c1ccc(Cl)cc1 , what growth is on record?
Output: 110

Input: For the compound O=C(N/N=C1\SCC(=O)N1c1ccccc1)c1cc(-c2cc3ccccc3o2)nn1-c1ccccc1 , what growth is on record?
Output: 121

Input: For the compound Cc1ccc2nc(-c3ccc(-n4on4-c4ccc(/C=C/c5ccc(-n6on6-c6ccc(-c7nc8ccc(C)cc8s7)cc6)cc5S(=O)(=O)O)c(S(=O)(=O)O)c4)cc3)sc2c1 , what growth is on record?
Output: 114

Input: For the compound CCC1(C(N)=O)CC2C=CC1CC2 (centres undefined) , what growth is on record?
Output: 113

Input: For the compound COc1ccc(-c2cnc(-c3ccc(F)cc3)[nH]2)cc1 , what growth is on record?
Output: 103

Input: For the compound CCCC(=O)Oc1ccc(/C(=C(\C)c2ccc(OC)cc2)c2ccc(OCCN3CCCCC3)cc2)cc1 , what growth is on record?
Output: 87.1

Input: For the compound O=C(Nc1ccc(-n2cc(-c3ccncc3)c(-c3ccc(O)c(Cl)c3)n2)cc1)Nc1cccc(Cl)c1Cl , what growth is on record?
Output: 43

Input: For the compound Cc1cccc(NC(=O)CCc2ccc(N3C(N)=NC(N)=NC3(C)C)cc2)c1 , what growth is on record?
Output: 19.8

Input: For the compound CCc1c(C)c2cc(-n3c(-c4ccc(OC)cc4)csc3=N)c(O)c(C)c2oc1=O , what growth is on record?
Output: 11.1

###

tested on: HCT-15 colon; assay: NCI-60 one-dose screen, 48 h (100 = growth as untreated, 0 = no growth, -100 = all killed); conditions: 10 µM unless noted
This is part of a sample that, as a whole, favours compounds with a hit. Of some 83,000 tested, about 20% had one in any assay.
growth strictly under 80% means Yes; at 80% or over means No.

Nc1ncnc2c1ccn2-c1cccc(NC(=O)c2cccc(C(F)(F)F)c2)c1    Yes
OCc1cnccc1NC12CC3CC(CC(C3)C1)C2    No
COc1cc2ncnc(Oc3ccc(NC(=O)Nc4ccc(CN5CCOCC5)c(C(F)(F)F)c4)c4ccccc34)c2cc1OC    Yes

Input: In plain terms, does CCCCCC/C=N/Nc1ccc([N+](=O)[O-])cn1 come in under 80% for growth?
Output: No

Input: In plain terms, does COc1ccc(Cl)cc1NC(=O)c1cc2c([nH]1)-c1nc(NC(=O)C(C)C)sc1CC2 come in under 80% for growth?
Output: No

Input: In plain terms, does COc1ccc(/C=C/C(=O)c2ccc(NC(=O)CSc3nnc(-c4cc(OC)c(OC)c(OC)c4)o3)cc2)cc1 come in under 80% for growth?
Output: Yes

Input: In plain terms, does CC(=O)Oc1ccc(C(OC(C)=O)OC(C)=O)cc1 come in under 80% for growth?
Output: No

Input: In plain terms, does COc1ccc(-c2nnc(SCC(=O)Nc3ccc(C(=O)/C=C/c4ccccc4)cc3)o2)cc1OC come in under 80% for growth?
Output: No

Input: In plain terms, does COc1ccc(-c2c(NC(=O)Nc3ccc(Cl)c(C(F)(F)F)c3)cnn2-c2ccc(S(N)(=O)=O)cc2)cc1 come in under 80% for growth?
Output: Yes

###

test system: MOLT-4 leukemia; experiment: NCI-60 one-dose screen, 48 h (100 = growth as untreated, 0 = no growth, -100 = all killed); settings: 10 µM unless noted
This is part of a sample that, as a whole, favours compounds with a hit. Of some 83,000 tested, about 20% had one in any assay.
Measured Quantity: growth (%)
Please reply with the bare figure in % and do not write the unit itself.

Input: For the molecule CCn1c(C)nc([N+](=O)[O-])c1Sc1nc(N)nc2nc[nH]c12 , what growth is on record?
Output: 14.3

Input: For the molecule O=C(NOC1OC(CO)C(O)C(O)C1O)Nc1ccccc1 (centres undefined) , what growth is on record?
Output: 79.7

Input: For the molecule COc1ccc(OC)c(NCC(=O)n2nc(/C=C\c3ccc(O)c(OC)c3)cc2/C=C\c2ccc(O)c(OC)c2)c1 , what growth is on record?
Output: 7.73

Input: For the molecule C=C1C(=O)O[C@H]2[C@H]1CC/C(CNC(=O)/C1=C/CC[C@@]3(C)O[C@H]3[C@H]3OC(=O)C(=C)[C@@H]3CC1)=C\CC[C@@]1(C)O[C@@H]21 , what growth is on record?
Output: 93.5

Input: For the molecule COc1ccc2c(c1)C(=O)/C(=C/c1ccc(OCC(=O)c3ccc(Cl)cc3)cc1)O2 , what growth is on record?
Output: 20

Input: For the molecule Cc1ccc2c(c1)Nc1ccc(C)cc1C2(C)C , what growth is on record?
Output: 73.4

Input: For the molecule COc1ccc(Cn2cc(COc3ccc4c5ccnc(C)c5n(CCCc5ccccc5)c4c3)nn2)cc1 , what growth is on record?
Output: 38.4

Input: For the molecule COc1ccc(C[C@H](N)C(=O)N[C@@H]2[C@@H](CO)OC(n3cnc4c(N(C)C)ncnc43)[C@@H]2O)cc1 (some centres undefined) , what growth is on record?
Output: -22.3

Input: For the molecule CCCCCCCCCCCCCCCCCCNCc1ccc(Cl)cc1 , what growth is on record?
Output: -62.1
